Reference source for all entries: patent US20220177587A1

Biological target: huCTLA4 (Homo sapiens, UniProt P16410)
Sequence (P16410 36-223): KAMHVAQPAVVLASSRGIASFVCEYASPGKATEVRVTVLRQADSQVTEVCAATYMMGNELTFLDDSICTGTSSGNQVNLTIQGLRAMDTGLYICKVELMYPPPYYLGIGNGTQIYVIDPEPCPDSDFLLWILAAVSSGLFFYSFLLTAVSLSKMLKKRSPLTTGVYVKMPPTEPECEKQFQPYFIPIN
Test: Flow binding to CHO cells stably expressing CTLA4
Set-up: huCTLA4 and huPD-L1, full-length mammalian surface expression constructs were generated; expressed in transfected cells; host or cells: CHO cells, lentiviral transduction, sorted to >98% purity
Conditions: Table E23; CD80 IgV-Fc (inert) at 33.3 nM; CHO cells stably expressing CTLA4
OUTCOME MEASURE: CTLA4 MFI at 33.3 nM
Please reply with the value in numeric form only.

Data request: Give its CTLA4 MFI at 33.3 nM value. Item: H18C/A26P/E35D/M47L/V68M/A71G (protein, UniProt P33681 35-288, looked up, variant H18C A26P E35D M47L V68M A71G) T-lymphocyte activation …: VIHVTKEVKEVATLSCGCNVSVEELPQTRIYWQKDKKMVLTMMSGDLNIWPEYKNRTIFDITNNLSIMILGLRPSDEGTYECVVLKYEKDAFKREHLAEVTLSVKADFPTPSISDFEIPTSNIRRIICSTSGGFPEPHLSWLENGEELNAINTTVSQDPETELYAVSSKLDFNMTTNHSFMCLIKYGHLRVNQTFNWNTTKQEHFPDNLLPSWAITLISVNGIFVICCLTYCFAPRCRERRRNERLRRESVRPV
Data returned: 23371
